Biological target: mouse sACfl (Mus musculus, UniProt Q8C0T9)
Construct: Schematic of full-length (sACfl) and truncated (sACt) sAC isoforms; from tissue; host or cells: testes of homozygous double knock-in mice (FLAG pulldown, eluted with 3xFLAG peptide)
Sequence (Q8C0T9 whole entry, the tested form may be a part, canonical isoform): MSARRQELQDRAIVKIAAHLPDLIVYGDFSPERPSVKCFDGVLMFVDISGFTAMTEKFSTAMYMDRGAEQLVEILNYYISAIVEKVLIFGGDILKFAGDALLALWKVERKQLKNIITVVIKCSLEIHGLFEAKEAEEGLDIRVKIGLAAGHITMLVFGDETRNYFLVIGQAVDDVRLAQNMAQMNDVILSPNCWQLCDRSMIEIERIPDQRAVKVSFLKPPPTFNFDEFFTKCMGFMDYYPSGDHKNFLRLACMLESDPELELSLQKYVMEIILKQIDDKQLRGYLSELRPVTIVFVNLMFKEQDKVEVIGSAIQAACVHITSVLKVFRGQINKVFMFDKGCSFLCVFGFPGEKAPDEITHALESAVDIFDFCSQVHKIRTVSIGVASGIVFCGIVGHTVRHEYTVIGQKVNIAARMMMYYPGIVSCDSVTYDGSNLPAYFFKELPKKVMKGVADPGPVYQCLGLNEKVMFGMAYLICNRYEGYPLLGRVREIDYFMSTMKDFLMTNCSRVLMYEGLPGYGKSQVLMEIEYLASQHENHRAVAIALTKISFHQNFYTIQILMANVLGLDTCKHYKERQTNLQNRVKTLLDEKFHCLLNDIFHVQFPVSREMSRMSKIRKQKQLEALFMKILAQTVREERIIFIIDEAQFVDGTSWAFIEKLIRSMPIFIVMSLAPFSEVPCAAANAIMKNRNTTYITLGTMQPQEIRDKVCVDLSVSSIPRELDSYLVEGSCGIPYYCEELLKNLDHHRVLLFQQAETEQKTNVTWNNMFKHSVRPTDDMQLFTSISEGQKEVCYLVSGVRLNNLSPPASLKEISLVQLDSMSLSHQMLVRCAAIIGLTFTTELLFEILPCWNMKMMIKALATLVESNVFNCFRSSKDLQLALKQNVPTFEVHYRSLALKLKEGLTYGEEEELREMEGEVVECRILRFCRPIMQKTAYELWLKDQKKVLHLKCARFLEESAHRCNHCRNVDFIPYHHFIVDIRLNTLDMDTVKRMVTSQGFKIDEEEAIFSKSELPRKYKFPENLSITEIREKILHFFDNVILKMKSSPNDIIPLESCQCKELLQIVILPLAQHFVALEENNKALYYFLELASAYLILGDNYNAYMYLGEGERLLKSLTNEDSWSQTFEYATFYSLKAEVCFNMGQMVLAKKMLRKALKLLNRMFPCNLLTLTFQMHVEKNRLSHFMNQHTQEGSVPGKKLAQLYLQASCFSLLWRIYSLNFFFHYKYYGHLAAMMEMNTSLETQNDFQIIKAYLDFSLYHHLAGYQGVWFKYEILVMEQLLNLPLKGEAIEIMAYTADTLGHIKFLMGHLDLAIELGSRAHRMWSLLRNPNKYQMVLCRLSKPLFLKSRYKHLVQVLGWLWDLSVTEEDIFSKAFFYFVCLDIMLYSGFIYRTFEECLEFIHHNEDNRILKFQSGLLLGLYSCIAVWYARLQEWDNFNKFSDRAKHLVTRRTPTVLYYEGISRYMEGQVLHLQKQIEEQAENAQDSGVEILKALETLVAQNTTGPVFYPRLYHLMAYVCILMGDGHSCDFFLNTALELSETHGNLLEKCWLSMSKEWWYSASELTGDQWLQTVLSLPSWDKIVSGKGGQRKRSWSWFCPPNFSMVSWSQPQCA
Assay: In vitro adenylyl cyclase activity assay (two-column method), endogenous mouse sACfl (FLAG)
Format: biochemical
Conditions: 2 mM ATP, 10 mM MgCl2, 40 mM NaHCO3; read-out: EC50 for Ca^2+
test.readout: pEC50
Give bare numbers, as −log10 of the molar value.

Recorded pEC50 for [Ca+2].[Cl-].[Cl-] , please?
2.89

* * *

Target: mouse sACt (Mus musculus, UniProt Q8C0T9)
Construct: from tissue; host or cells: testes of homozygous double knock-in mice (Strep pulldown after FLAG depletion, eluted with biotin)
Sequence (Q8C0T9 1-471 isoform Q8C0T9-2): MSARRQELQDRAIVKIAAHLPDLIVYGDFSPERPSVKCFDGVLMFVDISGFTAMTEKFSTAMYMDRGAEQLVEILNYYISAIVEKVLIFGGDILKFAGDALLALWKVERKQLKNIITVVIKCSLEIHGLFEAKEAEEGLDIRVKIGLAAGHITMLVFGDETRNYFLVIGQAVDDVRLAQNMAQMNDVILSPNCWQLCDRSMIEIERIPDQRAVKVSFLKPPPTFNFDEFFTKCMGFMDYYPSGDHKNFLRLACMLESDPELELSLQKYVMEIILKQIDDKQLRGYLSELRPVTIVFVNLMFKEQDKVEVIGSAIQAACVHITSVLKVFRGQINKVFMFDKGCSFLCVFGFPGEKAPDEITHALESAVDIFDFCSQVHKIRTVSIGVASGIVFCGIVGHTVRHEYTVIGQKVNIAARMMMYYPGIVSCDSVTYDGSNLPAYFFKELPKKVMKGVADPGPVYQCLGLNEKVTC
Assay: In vitro adenylyl cyclase activity assay (two-column method), endogenous mouse sACt (Strep)
Format: biochemical
Conditions: 2 mM ATP, 10 mM MgCl2, 40 mM NaHCO3; read-out: EC50 for Ca^2+
test.readout: pEC50
One number for each entry, as −log10 of the molar value.

Recorded pEC50 for [Ca+2].[Cl-].[Cl-] , please?
2.85
